The reported numbers originate from patent US20030236190A1.

For each of the binders below, state its Ratio over Background.
# Target Or System: T1, Soluble IGF-1R (R&D Systems, Cat. # 391-GR/CF); recombinant human IGF-1R (human, UniProt P08069 31-935)
# T1 construct: extracellular domain; Eu3+-labelled in the TR-FRET assays; also called sIGF-1R; rhIGF-1R
# Assay Info: phage ELISA vs milk
Positions of bridges follow the written chain, without caps; N, C: chain ends. No end group written: not given here.
Give bare numbers, in fold.

INSERT INTO assay_data (binder, value_measured) VALUES
  ('AVRATRFDEAFYDWFVRQISDGQGNK [H2CA-4-86-GFR]', 7.3),
  ('DRDFCRFYERLTALVGGQVDGGWPC (disulfide 5-25 (inferred)) [20C-3-F6-IGFR]', 26.1),
  ('RGIVAMVEATEVGSDHDPFYHKLSELVQGS [B6Hα-2-C7-IR]', 6.7);

State the recorded Ratio over Background for every item in the following list.
1. VEGRGLFYDLLRQLLARRQNG [20E2B-3-C6-IGFR]
2. IQQELTFYDLLHRLVRSELGS [20E2B-3-D2-IGFR]
3. EGSGFYGYFFSLLGLQG [NNRPy-4-A9-IR]
4. QGGSASFYDAIDRLLRMRIGG [20E2A-4-F11-IGFR]
5. TFYSCLASLLTGTPQPNRGPWERCR (disulfide 5-24 (inferred)) [20C-3-G3-IGFR]
6. PDLHKGFYAQLAQLIRGQLLS [20E2H-3-E3-IGFR]

Result:
[16.8, 12.4, 10, 18.8, 32.3, 16.3]

State the recorded Ratio over Background for every item in the following list.
1. VGRASGFPENFYDWFGRQLSLQSGEQ [H2CA-4-H6-IGFR]
2. GGTKAVAKVGTRDDPFYHKLSELLQGS [H6Hα-4-G8-IR]
3. IIGGFYSYFNSVLRLGT [NNRPγ-4-A1-IR]
4. TSEVQRRSQDNFYDWFVAQVA [A6S-3-E2-IR]
5. GFREGNFYEWFQAQVT [E4Da-4-H2-IR]

Result:
[10.5, 6.1, 10.9, 24.7, 33.9]
